Measurement notes: chemical genetic growth profiling, strain panel (AID 1159580);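 further: tested at 20 µM; growth read once vehicle control cultures reached saturation at 30 °C; 1 = growth at the plate median or of vehicle wells; lower values mean less growth of the strain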
Test conditions: S. cerevisiae deletion strains, growth OD, locus YJL164C, strain tpk1, active compounds read low
In all, about 5,500 compounds went through this assay and about 2,000 (36%) were called active. About 18% were inconclusive and are not listed. Some of the results follow.
Readout kind: normalized growth
Just the number, please, no unit after it.

# lookup: normalized growth of C=CCS(=O)C[C@H](N)C(=O)O (some centres undefined)
0.997

Try this compound too: "NCCCCCC(=O)O"
0.996

Try this compound too: CN(C)CCC(c1ccccc1)c1ccccn1 (centres undefined)
1.01

###

Measurement notes: chemical genetic growth profiling, strain panel (AID 1159580);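 further: tested at 20 µM; growth read once vehicle control cultures reached saturation at 30 °C; 1 = growth at the plate median or of vehicle wells; lower values mean less growth of the strain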
Test conditions: S. cerevisiae deletion strains, growth OD, locus YOR144C, strain elg1, active compounds read low
The whole screen tested about 5,500 compounds, of which about 2,000 (36%) were called active. About 18% were inconclusive and are not listed. Some of the results follow.
Listed here: items and their measured normalized growth.
Just the number, please, no unit after it.

>>> experimental_value("CC1CCC(NC(=O)N(CCCl)N=O)CC1 (centres undefined)")
0.998
>>> experimental_value("COc1cc2c(cc1OC)C1(O)C(=O)c3ccc(O)c(C(=O)O)c3OC1CO2 (centres undefined)")
0.994

# lookup: normalized growth of O=C(O)C1CCCNC1 (centres undefined)
1.02

Try this compound too: "NC(N)=NCCN1CCCCCCC1"
1.02

###

Measurement notes: chemical genetic growth profiling, strain panel (AID 1159580);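 further: tested at 20 µM; growth read once vehicle control cultures reached saturation at 30 °C; 1 = growth at the plate median or of vehicle wells; lower values mean less growth of the strain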
Test conditions: S. cerevisiae deletion strains, growth OD, locus YDR388W, active compounds read low
The whole screen tested about 5,500 compounds, of which about 2,000 (36%) were called active. About 18% were inconclusive and are not listed. The list shows a part of the results.
Readout kind: normalized growth
Just the number, please, no unit after it.

Example compounds with recorded normalized growth:
>>> experimental_value("CCCNC(=O)NS(=O)(=O)c1ccc(Cl)cc1")
1.01
>>> experimental_value("COc1ccc2c(c1)OCC(Cc1ccc(OC)c(OC(C)=O)c1)C2=O (configuration not stated)")
0.998
>>> experimental_value("O=C(O)CCC1NCC2CC1CN1CCCCC21 (configuration not stated)")
0.994
>>> experimental_value("C[C@]12CCC3c4ccc(OC(=O)CCC(=O)O)cc4CCC3C1CCC2=O (some centres not stated)")
0.98
>>> experimental_value("O=c1[nH]c(=O)n(C2C[C@H](O)[C@@H](CO)O2)cc1C(F)(F)F (some centres not stated)")
0.975

Here is another compound to look at.
# lookup: normalized growth of CC(=O)O[C@@H]1CC2C(C)(C)[C@H](O)CC[C@]2(C)C2CC[C@@]3(C)[C@H](c4ccoc4)OC(=O)C4OC43[C@@]21C (some centres not stated)
1

###

Measurement notes: chemical genetic growth profiling, strain panel (AID 1159580);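 further: tested at 20 µM; growth read once vehicle control cultures reached saturation at 30 °C; 1 = growth at the plate median or of vehicle wells; lower values mean less growth of the strain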
Test conditions: S. cerevisiae deletion strains, growth OD, locus YMR001C, strain CDC5, active compounds read low
Out of some 5,500 compounds screened, about 2,000 (36%) were called active. Inconclusive results (about 18%) are left out. The list shows a part of the results.
Readout kind: normalized growth
Just the number, please, no unit after it.

Example compounds with recorded normalized growth:
>>> experimental_value("Clc1ccc(CSc2nccn2-c2cc(Cl)ccc2Cl)cc1")
0.964
>>> experimental_value("Brc1ccc(-c2csc(-c3cccnc3)n2)cc1")
0.88
>>> experimental_value("COc1ccc(-c2cn3cc(C)ccc3n2)cc1")
0.977

# lookup: normalized growth of Cc1ccc(NC(=S)C(C#N)C(=O)N2CCOCC2)c(C)c1 (centres undefined)
0.994
